Target: T1, Human Nectin-4 (human, UniProt Q96NY8 32-349, limits assumed)
T1 construct: Protein immobilised on the SPR chip; also called target protein
T1 sequence: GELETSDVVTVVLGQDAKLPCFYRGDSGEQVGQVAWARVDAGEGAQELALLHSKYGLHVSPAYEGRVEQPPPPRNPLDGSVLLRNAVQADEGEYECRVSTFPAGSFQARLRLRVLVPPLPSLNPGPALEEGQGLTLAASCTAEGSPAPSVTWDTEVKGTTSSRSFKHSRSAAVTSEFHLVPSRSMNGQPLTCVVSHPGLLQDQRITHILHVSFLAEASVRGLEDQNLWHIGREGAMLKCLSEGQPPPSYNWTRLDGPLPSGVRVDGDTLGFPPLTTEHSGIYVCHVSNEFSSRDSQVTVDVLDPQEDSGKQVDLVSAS
Assay: Table 2B (DELFIA or SPR)
pKd: −log10 of the molar value. Bridges are numbered along the chain shown (N, C = ends). Primed or numbered codes have the meaning given here. Where no end group is shown, it is not given here. The star is where a group is joined. FITC = O=C1OC2(c3ccc(O)cc3Oc3cc(O)ccc32)c2ccc(NC(=S)*)cc21; Biotin = O=C1N[C@H]2[C@H](CS[C@H]2CCCCC(=O)*)N1; PEG4″ = 4(ethylene glycol)
The label depends only on pKd: y if it is at least 8, n if it is smaller.

>>> df
                                     binder  qualitative_label
0  {Biotin-PEG4″}-CEYDEEFFTALARLRGGDICEYIQAKFQYLPGLCIQEILDNLGCS (designed binder, disulfide 1-34, 20-44) [C148]                  y
1  {FITC}-CEYDEEFFAGLKRLRGGDICYYIKKKFDKVPDLCIEEILDKLGC-OH (designed binder, disulfide 1-34, 20-44) [C10]                  n
2  {Biotin-PEG4″}-CEYDEEFFTALARLRGADICDYIQAKFQYLPGLCIEEILDNLGCS (designed binder, disulfide 1-34, 20-44) [C147]                  y
3  Ac-CEYDEEFFTGLKRLRGGDICYYIKKKFKKVPELCIEEILDKLGC-OH (designed binder, disulfide 1-34, 20-44) [C32]                  y

Data provenance: patent US20260151519A1
